# measured.on: Candida albicans (Cat. No. 10231, ATCC) whole cells (Candida albicans)
# procedure.details: luminescent ELISA, Fab on C. albicans cells
measured.endpoint: Approximate Affinity
I'd appreciate it if you included the unit after the number.

**Q:** Reported Approximate Affinity, binder P2H12 Fab (Fab, V domains shown) VH: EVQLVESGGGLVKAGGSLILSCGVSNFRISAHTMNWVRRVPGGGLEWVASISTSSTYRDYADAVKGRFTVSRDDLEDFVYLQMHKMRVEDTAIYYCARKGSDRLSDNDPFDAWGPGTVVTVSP VL: GVVMTQSPSTLSASVGDTITITCRASQSIETWLAWYQQKPGKAPKLLIYKASTLKTGVPSRFSGSGSGTEFTLTISGLQFDDFATYHCQHYTDHHGATFGQGTRVEIKR : ____
**A:** 2 µg/mL
